Each entry below carries its recorded composite z-score.
Target under test: Torsin-1A (Homo sapiens) (UniProt O14656)
Sequence (O14656 whole entry, looked up): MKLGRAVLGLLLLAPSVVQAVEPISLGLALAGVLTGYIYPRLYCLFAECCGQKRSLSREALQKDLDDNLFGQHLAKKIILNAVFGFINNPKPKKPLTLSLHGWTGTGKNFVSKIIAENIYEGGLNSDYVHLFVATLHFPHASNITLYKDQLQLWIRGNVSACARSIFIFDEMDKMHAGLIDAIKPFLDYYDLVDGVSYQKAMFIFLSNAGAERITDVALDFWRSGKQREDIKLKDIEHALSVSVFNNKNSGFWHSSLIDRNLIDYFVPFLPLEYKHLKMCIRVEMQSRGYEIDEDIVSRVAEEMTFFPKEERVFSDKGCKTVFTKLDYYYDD
Test: torsin A binders from cell lysate, primary screen, small-molecule microarray, wild-type, 635/667 nm (AID 1149)
Stated conditions: COS7 hTOR1A-WT lysate, 635 nm fluorescence, higher = more signal
# answer = number (no unit)

Worked cases, composite z-score given:
*Q* Identify composite z-score associated with the compound C=CCOC(=O)[C@@H]1[C@H]2C(=O)O[C@H](c3ccccc3)[C@H](c3ccccc3)N2[C@H](c2ccc(OCCOC(=O)[C@H]3C[C@H]4C(=O)N[C@@H](CCCCN(C)C)C(=O)N4[C@H]3c3cccc(OCCO)c3)cc2)[C@@]12C(=O)Nc1ccc(I)cc12
*A* 1.61

*Q* Identify composite z-score associated with the compound CC(C)CNC(=O)[C@@]1(c2ccc([N+](=O)[O-])cc2)CC(=O)N(C2CCCCC2)[C@@H]1c1ccc(CO)cc1I
*A* -0.149

*Q* Identify composite z-score associated with the compound COc1ccc(NN2C(C(O)c3ccccn3)C=CC3C(=O)N(C4CCCCC4)C(=O)C32)cc1 (stereo unspecified)
*A* 0.0607

Others:
*Q* Identify composite z-score associated with the compound C#CCNC(=O)[C@H](Cc1ccccc1)NC(=O)[C@@H](N=[N+]=[N-])C(C)C
*A* 0.0696

*Q* Identify composite z-score associated with the compound C=CCC(OC(C)=O)[C@@H]1[C@@H](N(Cc2cc3ccccc3o2)C(=O)c2ccc(C)cc2)c2cc(OCCCO)ccc2N1C(=O)Cc1ccc2ccccc2c1 (stereo partly specified)
*A* -0.0509

*Q* Identify composite z-score associated with the compound CC(C)C(CO)N1C(=O)[C@]2(C)C3C(=O)OCCC/C=C\[C@H]3OC23C=CCN(c2ccc(Cl)cc2)C(=O)[C@@H]13 (stereo partly specified)
*A* -1.47

* * *

Each entry below carries its recorded composite z-score.
Target under test: Dickkopf-related protein 1 (Homo sapiens) (UniProt O94907)
Sequence (O94907 whole entry, looked up): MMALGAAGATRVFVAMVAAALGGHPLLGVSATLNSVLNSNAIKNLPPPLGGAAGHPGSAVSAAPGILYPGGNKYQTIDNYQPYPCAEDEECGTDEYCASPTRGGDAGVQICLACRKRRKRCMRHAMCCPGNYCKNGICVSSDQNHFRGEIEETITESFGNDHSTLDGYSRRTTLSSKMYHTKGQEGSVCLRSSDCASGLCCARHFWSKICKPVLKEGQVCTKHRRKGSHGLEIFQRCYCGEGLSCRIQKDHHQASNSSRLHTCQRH
Test: DKK1 binders on small-molecule microarrays, primary screen, biochemical, small-molecule microarray, 635 nm fluorescence scan (AID 1106);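 also: score merges emission near 667 nm with signal to noise over three replicate slides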
Stated conditions: DKK1 binding, higher = more signal
# answer = number (no unit)

*Q* Identify composite z-score associated with the compound COCCCNC(=O)[C@]1(CCC(=O)OC(C)(C)C)N=C(c2ccc(OCCCO)cc2)O[C@@H]1c1ccccc1
*A* -0.261

Others:
*Q* Identify composite z-score associated with the compound CCCCC(=C=CC[C@@H](O)c1ccc(OCCO)cc1)C[C@@H](O)COCc1ccccc1
*A* 0.111

*Q* Identify composite z-score associated with the compound COc1ccc(C(O)C2C=CC3C(=O)N(c4ccccc4)C(=O)C3N2Nc2ccccc2)cc1OCc1ccccc1 (stereo not given)
*A* -0.0662

*Q* Identify composite z-score associated with the compound C#CCNC(=O)[C@H](Cc1ccccc1)NC(=O)[C@@H](N=[N+]=[N-])C(C)C
*A* 0.654

*Q* Identify composite z-score associated with the compound COc1ccc(C#Cc2ccc3c(c2)[C@]2(C(=O)N3)[C@H](C(=O)N3CCc4cc(OC)c(OC)cc4C3)[C@H]3C(=O)O[C@H](c4ccccc4)[C@H](c4ccccc4)N3[C@@H]2c2ccc(O)cc2)cc1
*A* 0.513

*Q* Identify composite z-score associated with the compound CC(C)(C)OC(=O)CC[C@@]1(C(=O)O)N=C(c2ccc(OCCCO)cc2)O[C@@H]1c1ccccc1
*A* -0.646

*Q* Identify composite z-score associated with the compound COCCOC(=O)N1C(=O)[C@@]2(c3cc(C#CC4(O)CCCCCC4)ccc31)[C@H](C(N)=O)[C@H]1C(=O)O[C@H](c3ccccc3)[C@H](c3ccccc3)N1[C@@H]2c1ccc(O)cc1
*A* 0.489

*Q* Identify composite z-score associated with the compound CC(C)C(=C=CC[C@@H](O)c1ccccc1OCCO)C[C@@H](O)COCc1ccccc1
*A* -0.691

*Q* Identify composite z-score associated with the compound COCCCNC(=O)[C@@]1(Sc2ccc(C)cc2)CC(=O)N(Cc2cc(C(F)(F)F)cc(C(F)(F)F)c2)[C@@H]1c1ccc(CO)cc1
*A* 0.585
